# System: Saccharomyces cerevisiae
# Method notes: protein stability index of tFT-peptide fusion (C-terminal peptide) (PSI (0-1 scale)); higher = more stable (slower turnover)
# Experimental conditions: genetic background: das1 deletion; temperature: 30 C
Please use rule met whenever protein stability index is not below 0.5, and rule not met whenever it is.

- Sequence content: "RPAVVPPPFAPL"
  Qualitative label: "rule met"
- Sequence content: "ASVCLNVIYQLV"
  Qualitative label: "rule not met"
- Sequence content: "RVGWVVVLGCVG"
  Qualitative label: "rule not met"
- Sequence content: "LDLSSLRCRYLL"
  Qualitative label: "rule met"
- Sequence content: "TDFICLLWLLHW"
  Qualitative label: "rule not met"
- Sequence content: "SRGRVLRLLLLV"
  Qualitative label: "rule not met"
- Sequence content: "RNCSFRRIQLAM"
  Qualitative label: "rule met"
- Sequence content: "GGSKIGFTVGGG"
  Qualitative label: "rule met"
- Sequence content: "WRCECELASACA"
  Qualitative label: "rule not met"
- Sequence content: "VVLCQVCVLWGW"
  Qualitative label: "rule not met"
- Sequence content: "LLLVSLAVPLSL"
  Qualitative label: "rule not met"
- Sequence content: "GCLGYTLSCFTY"
  Qualitative label: "rule met"
- Sequence content: "GLWLRVCIVAWV"
  Qualitative label: "rule not met"
- Sequence content: "RITGCWKTYKMQ"
  Qualitative label: "rule met"
- Sequence content: "IPHLNCCCCLVR"
  Qualitative label: "rule not met"
- Sequence content: "PPSPPPLSASVP"
  Qualitative label: "rule met"
- Sequence content: "AWVEVYVISIGV"
  Qualitative label: "rule not met"
- Sequence content: "WSWVFVVLRFGR"
  Qualitative label: "rule not met"
- Sequence content: "VFVLFLRAVACR"
  Qualitative label: "rule not met"
- Sequence content: "LFFGLCFVFFGF"
  Qualitative label: "rule not met"
- Sequence content: "HLGNTMIKKLIG"
  Qualitative label: "rule met"
- Sequence content: "VYFRMGFMRVCV"
  Qualitative label: "rule not met"
- Sequence content: "RIEGTLTARTAF"
  Qualitative label: "rule met"
- Sequence content: "GFNIFFFFFFFV"
  Qualitative label: "rule not met"
- Sequence content: "QITIYPIPLARF"
  Qualitative label: "rule met"
- Sequence content: "TPRQYVVSLSLC"
  Qualitative label: "rule met"
- Sequence content: "GGIRLRVRFFVI"
  Qualitative label: "rule met"
- Sequence content: "SWFNLLSILPRD"
  Qualitative label: "rule met"
- Sequence content: "GLVWSKCFFIVG"
  Qualitative label: "rule met"
- Sequence content: "LWFLDYVFICFL"
  Qualitative label: "rule not met"
- Sequence content: "IHCLSIVVHGLS"
  Qualitative label: "rule not met"

----------
# Tested on: Saccharomyces cerevisiae
# Method notes: protein stability index of tFT-peptide fusion (C-terminal peptide) (PSI (0-1 scale)); higher = more stable (slower turnover)
# Experimental conditions: genetic background: wild type; temperature: 30 C
Please use Satisfied whenever protein stability index is not below 0.7, and Not satisfied whenever it is.

- Sequence content: "KTKEKTKKEIQM"
  Qualitative label: "Not satisfied"
- Sequence content: "GLGGRGRRASEW"
  Qualitative label: "Not satisfied"
- Sequence content: "EWRDSCLLKWWV"
  Qualitative label: "Satisfied"
- Sequence content: "VQRPALPPRHPP"
  Qualitative label: "Not satisfied"
- Sequence content: "PRKHSSRAINPI"
  Qualitative label: "Satisfied"
- Sequence content: "LRAWWTPRRGRW"
  Qualitative label: "Satisfied"
- Sequence content: "LLFFRSPFSLVS"
  Qualitative label: "Not satisfied"
- Sequence content: "YTSFGSSLIPTT"
  Qualitative label: "Not satisfied"
- Sequence content: "LSFGPISGTPFR"
  Qualitative label: "Not satisfied"
- Sequence content: "GVPAPVFCRSIF"
  Qualitative label: "Not satisfied"
- Sequence content: "IWVWMLSVWLGG"
  Qualitative label: "Not satisfied"
- Sequence content: "ITTKLRVTRLLR"
  Qualitative label: "Satisfied"
- Sequence content: "ADSGAHTISTVC"
  Qualitative label: "Not satisfied"
- Sequence content: "AGHTTVTNPLPQ"
  Qualitative label: "Satisfied"
- Sequence content: "MVTGELVQLLLV"
  Qualitative label: "Not satisfied"
- Sequence content: "PRHLTPPPAPSA"
  Qualitative label: "Not satisfied"
- Sequence content: "SQTRIKPREETA"
  Qualitative label: "Not satisfied"
- Sequence content: "TIPSHPLLPTLC"
  Qualitative label: "Not satisfied"
- Sequence content: "CVILVSFFCYSA"
  Qualitative label: "Not satisfied"
- Sequence content: "LTVVNFFPLGSP"
  Qualitative label: "Not satisfied"

----------
Below is a list of entries, each paired with its recorded protein stability index value.
# Test system: Saccharomyces cerevisiae
# Method notes: protein stability index of tFT-peptide fusion in deletion strain of DOA10 (PSI (0-1 scale)); higher = more stable (slower turnover)

- Sequence content: "RVTRLDAIYFRIW"
  protein stability index: 0.577
- Sequence content: "WLYMCSVGCWFR"
  protein stability index: 0.633
- Sequence content: "PLVSLPILLFFR"
  protein stability index: 0.661
- Sequence content: "GKYMCSVGCWFR"
  protein stability index: 0.674
- Sequence content: "CLVSLPILLFFRE"
  protein stability index: 0.582
- Sequence content: "RSLRVLLPLYFI"
  protein stability index: 0.528
- Sequence content: "AITVPMCPLLLR"
  protein stability index: 0.656
- Sequence content: "RSLRVLLPLYFD"
  protein stability index: 0.63
- Sequence content: "RVTRLDAVYFRI"
  protein stability index: 0.68
- Sequence content: "RSLRVLLPLYFK"
  protein stability index: 0.633
- Sequence content: "AITLPMVPLLLR"
  protein stability index: 0.622
- Sequence content: "GLYMCSVGCWFF"
  protein stability index: 0.532
- Sequence content: "GLYMCSVGCWFK"
  protein stability index: 0.628
- Sequence content: "RVTRLDAIYFQI"
  protein stability index: 0.305
- Sequence content: "RVTRLDAIYFRL"
  protein stability index: 0.7
- Sequence content: "AITLPMCPLLLV"
  protein stability index: 0.417
- Sequence content: "CQVSLPILLFFR"
  protein stability index: 0.631
- Sequence content: "AITLPMCPLLVR"
  protein stability index: 0.231
- Sequence content: "RVPRLDAIYFRI"
  protein stability index: 0.669
- Sequence content: "CLVSGPILLFFR"
  protein stability index: 0.631
- Sequence content: "GLYMCNVGCWFR"
  protein stability index: 0.676
- Sequence content: "RSLRVLLPLYFRA"
  protein stability index: 0.593
- Sequence content: "AITLPMCALLLR"
  protein stability index: 0.638
- Sequence content: "RSLRVLLKLYFR"
  protein stability index: 0.616
- Sequence content: "AITLPNCPLLLR"
  protein stability index: 0.682
- Sequence content: "RVTDLDAIYFRI"
  protein stability index: 0.678
- Sequence content: "LLVSLPILLFFR"
  protein stability index: 0.561
- Sequence content: "AITLPMEPLLLR"
  protein stability index: 0.67
- Sequence content: "GLYMCSVYCWFR"
  protein stability index: 0.374
- Sequence content: "RVTRLDAIYFRI"
  protein stability index: 0.681

----------
# Tested on: Saccharomyces cerevisiae
# Method notes: protein stability index of tFT-peptide fusion (C-terminal peptide) (PSI (0-1 scale)); higher = more stable (slower turnover)
# Experimental conditions: genetic background: doa10 deletion; temperature: 30 C
Below is a list of entries, each paired with its recorded protein stability index value.

- Sequence content: "VLVVWLGICFGY"
  protein stability index: 0.187
- Sequence content: "PWFSWLLYSFLF"
  protein stability index: 0.535
- Sequence content: "EGVVLLVDCVAT"
  protein stability index: 0.26
- Sequence content: "VAALLCWLHLYA"
  protein stability index: 0.362
- Sequence content: "YIFLPIALVFFP"
  protein stability index: 0.333
- Sequence content: "YMVSLSFTLVRS"
  protein stability index: 0.297
- Sequence content: "IPHLNCCCCLVR"
  protein stability index: 0.272
- Sequence content: "FLFLFIFYFFCC"
  protein stability index: 0.315
- Sequence content: "LLFLVCFFPSIS"
  protein stability index: 0.304
- Sequence content: "MSVLAFVCCLSG"
  protein stability index: 0.248
- Sequence content: "LLFYSYFFFVLY"
  protein stability index: 0.312
- Sequence content: "VVCFVVCGFYLG"
  protein stability index: 0.224

----------
# Test system: Saccharomyces cerevisiae
# Method notes: protein stability index of tFT-peptide fusion (C-terminal peptide) (PSI (0-1 scale)); higher = more stable (slower turnover)
# Experimental conditions: genetic background: wild type; temperature: 30 C

- Sequence content: "KGDAQASSDLTL"
  protein stability index: 0.691
- Sequence content: "SAWTPPLCLLPP"
  protein stability index: 0.711
- Sequence content: "GGGRGGGFSGGV"
  protein stability index: 0.655
- Sequence content: "LRTVSPPSASPP"
  protein stability index: 0.689
- Sequence content: "LSWDVWWYFLSV"
  protein stability index: 0.594
- Sequence content: "IFLLFPFSWRIF"
  protein stability index: 0.446
- Sequence content: "IRGCSGSDKNKS"
  protein stability index: 0.643
- Sequence content: "VLVVASLRFSFF"
  protein stability index: 0.249
- Sequence content: "EWEKKKRGNTRK"
  protein stability index: 0.642
- Sequence content: "QERRDQGRKGQD"
  protein stability index: 0.673
- Sequence content: "RGCGRLDGRRGG"
  protein stability index: 0.704
- Sequence content: "PLYHPSESYNPA"
  protein stability index: 0.678
- Sequence content: "SFSPEQITCNPY"
  protein stability index: 0.598
- Sequence content: "PLVPRCFVPPVI"
  protein stability index: 0.657
- Sequence content: "FVSWNLPLAFAF"
  protein stability index: 0.499
- Sequence content: "SPLPPTPPPISP"
  protein stability index: 0.672
- Sequence content: "RMGGRGGRLGAE"
  protein stability index: 0.657
- Sequence content: "VFFCLFWFFCSF"
  protein stability index: 0.51
- Sequence content: "VAGFPSPVVLGW"
  protein stability index: 0.607
- Sequence content: "ARGKYKKLKIKE"
  protein stability index: 0.733
- Sequence content: "VLPPPRHPLPRP"
  protein stability index: 0.698
